Consider the following compounds; for each one, report its Percent Effect.
- SUBJECT_OF_TEST: Chromo domain-containing protein 1 (Saccharomyces cerevisiae (strain ATCC 204508 / S288c) (Baker's yeast))
- TEST_METHOD_NOTES: ScCHD-1 Enzyme Inhibition Assay; note: in the data most compounds retested in dose-response had high values
- Type: functional
- Set-up: scale not given: direction of the effect not stated beside the values
- ASSAY_SETUP: 30 µM
Return type: number; implicit unit %.

In: Given Cn1nc(C2CN(C(=O)c3cscn3)C2)c2nccnc21 , respond with its Percent Effect.
Out: -18.2

In: For the compound Cc1nc(C)n(CC2CCCN(c3ncnc4ccsc34)C2)n1 (stereo unspecified) , give its measured Percent Effect value.
Out: -6.75

In: Give the measured Percent Effect for CC(=O)Nc1nc(C(=O)N2CCCC(c3cc(C)[nH]n3)C2)cs1 (stereo unspecified)
Out: 0.638

In: Tell me Percent Effect reported for CNC(=O)CS(=O)(=O)C1CCN(S(=O)(=O)c2ccccc2Br)CC1
Out: -0.751

In: Report Percent Effect, nothing else, for this compound: COc1ncccc1NC(=O)NC1CCOc2ccccc21 (stereo unspecified)
Out: -3.65

In: Return the recorded Percent Effect value; entry: Cc1ccc(N2CCCC(NCc3ccsc3)C2)nn1 (stereo unspecified)
Out: -7.21

###

- Tested on: Trypanosoma cruzi
- TEST_METHOD_NOTES: Trypanosoma cruzi phosphomannomutase and mannose-1-phosphate guanylyltransferase assay
- Format: functional
- Design: scale not given: direction of the effect not stated beside the values
- ASSAY_SETUP: 10 µM
Please provide measured Percent Effect for the entries that follow.
Note: unit % is implicit; provide only the numeric part.

In: Return Percent Effect (reported value) for this molecule: NC(=O)c1nc(COc2ccc3c(c2)OCO3)no1
Out: -8.84

In: Note down Percent Effect recorded for CS(=O)(=O)N1CCOC2(CCCN(c3cnccn3)C2)C1 (stereo not given)
Out: -2.83

In: Look up Percent Effect of Cc1nnc2n1CCN(C(=O)c1cn(-c3ccccc3Cl)nn1)C2 and report it.
Out: 0.992

In: Note down Percent Effect recorded for O=C1CC(c2ccsc2)c2c(n(C3CCOCC3)[nH]c2=O)N1 (stereo not given)
Out: 2.36

In: Provide measured Percent Effect value, entry: Cc1noc2nc(C3CCN(CC4=CCCOC4)CC3)cc(C(F)F)c12
Out: -3.56

In: Report measured Percent Effect; entry is Cc1cc(N2CCCN(C(=O)Cc3ccc(O)c(Cl)c3)CC2)ccn1
Out: 2.18

In: Fill in reported Percent Effect for this entry: Cc1cncc(C(=O)N2CCCC(C(=O)CCc3ccccc3)C2)c1 (stereo not given)
Out: -5.88

In: Please indicate Percent Effect recorded for Cc1ccc(N2CC3(COCCN(Cc4cccnc4)C3)OCC2=O)s1 (stereo not given)
Out: -2.27

In: Give the reported value of Percent Effect for this record: Cc1cccc(CC(=O)NCCCOC(C)C)c1
Out: -3.75

In: Identify measured Percent Effect associated with CN1C(=O)CC(C(=O)O)C12CCN(Cc1ccc(Cl)cc1F)CC2 (stereo not given)
Out: -0.487

In: Please report Percent Effect for the following molecule: Cc1nn(C)c(C)c1C1CCCN1Cc1nc(-c2ccco2)no1 (stereo not given)
Out: 4.18

In: Report Percent Effect, nothing else, for this molecule: c1cnnc(NCC2CN(Cc3cccc4c3OCCO4)CCO2)c1 (stereo not given)
Out: 9.55

In: Determine its reported Percent Effect: CN1CCN(Cc2nc3ccccc3[nH]2)[C@H]2CS(=O)(=O)C[C@H]21
Out: -1.07

In: # return recorded Percent Effect for input CCc1nc(C2CCCN(C(=O)c3ccc4[nH]nnc4c3)C2)no1 (stereo not given)
Out: -4.8

In: Read off the recorded Percent Effect for Nc1cc2c(nn1)CCN(C(=O)c1cccc3c1OCCO3)C2
Out: 8.24

In: Please look at this molecule and report its Percent Effect: Cc1nc(C)n(CC2CCCCN2CCCS(=O)(=O)N(C)C)n1 (stereo not given)
Out: 2.7

In: Fill in Percent Effect for record CN1CCN(C(=O)c2cnc3c(cnn3C3CCCC3)c2)CC1
Out: 8.78

In: Please report the measured Percent Effect for CC(=O)N1CCC2(CC1)COCCN2Cc1ccc(F)cc1
Out: -4.2

In: Provide one value: measured Percent Effect of COc1ccnc(N2CCN(C(=O)Cc3ccc(C#N)cc3)CC2)n1
Out: 3.82

In: Tell me measured Percent Effect for Cc1cnc2n(c1=O)CC(C(=O)Nc1cccc3cccnc13)CS2 (stereo not given) please.
Out: 5.88

In: Item O=C(NCCCN1CCCC1)c1n[nH]c(=O)c2ccccc12 : provide Percent Effect
Out: -10.7

In: Report Percent Effect for CCOc1ccc(C#N)cc1NCC(=O)Nc1cc(F)ccc1F
Out: 4.63

In: Annotate the molecule O=C(NCc1ccccn1)[C@@H]1COC[C@H]2CN(C3CCOCC3)C[C@H]21 with its measured Percent Effect.
Out: -7.33

In: // fetch Percent Effect given entry CCN(Cc1ccc(OC)c(F)c1)C(=O)c1ccc(C)[nH]c1=O
Out: -0.188

In: Item c1coc(-c2noc(CN3CCC(c4ccn[nH]4)CC3)n2)c1 : provide Percent Effect
Out: 5.02

In: Give the reported Percent Effect for this molecule. Cc1nc(CN2CCN(C(=O)c3sccc3C3CC3)CC2)cs1
Out: -0.49

In: Specify measured Percent Effect for CSCCC1c2nc[nH]c2CCN1Cc1ccnc2ccccc12 (stereo not given) .
Out: 4.38

In: Return reported Percent Effect. Input molecule: CCN1CC2(CCNCC2)COc2ccccc2S1(=O)=O
Out: -4.91

In: Indicate the recorded Percent Effect value for this molecule: c1ccc2cc(OCCN3CCOC(Cn4cncn4)C3)ccc2c1 (stereo not given)
Out: 2.77

In: Please supply the value of reported Percent Effect for the item CCc1nnc2n1CCN(C(=O)c1ccc(-c3ccco3)nc1C)C2
Out: 5.57
